# Assayed system: Glucocorticoid receptor (Rattus norvegicus, UniProt P06536)
# Construct: The thymuses were removed and homogenized; from tissue; host or cells: thymus cytosol (105,000 g supernatant) of suprarenalectomized male rats
# Sequence (P06536 whole entry): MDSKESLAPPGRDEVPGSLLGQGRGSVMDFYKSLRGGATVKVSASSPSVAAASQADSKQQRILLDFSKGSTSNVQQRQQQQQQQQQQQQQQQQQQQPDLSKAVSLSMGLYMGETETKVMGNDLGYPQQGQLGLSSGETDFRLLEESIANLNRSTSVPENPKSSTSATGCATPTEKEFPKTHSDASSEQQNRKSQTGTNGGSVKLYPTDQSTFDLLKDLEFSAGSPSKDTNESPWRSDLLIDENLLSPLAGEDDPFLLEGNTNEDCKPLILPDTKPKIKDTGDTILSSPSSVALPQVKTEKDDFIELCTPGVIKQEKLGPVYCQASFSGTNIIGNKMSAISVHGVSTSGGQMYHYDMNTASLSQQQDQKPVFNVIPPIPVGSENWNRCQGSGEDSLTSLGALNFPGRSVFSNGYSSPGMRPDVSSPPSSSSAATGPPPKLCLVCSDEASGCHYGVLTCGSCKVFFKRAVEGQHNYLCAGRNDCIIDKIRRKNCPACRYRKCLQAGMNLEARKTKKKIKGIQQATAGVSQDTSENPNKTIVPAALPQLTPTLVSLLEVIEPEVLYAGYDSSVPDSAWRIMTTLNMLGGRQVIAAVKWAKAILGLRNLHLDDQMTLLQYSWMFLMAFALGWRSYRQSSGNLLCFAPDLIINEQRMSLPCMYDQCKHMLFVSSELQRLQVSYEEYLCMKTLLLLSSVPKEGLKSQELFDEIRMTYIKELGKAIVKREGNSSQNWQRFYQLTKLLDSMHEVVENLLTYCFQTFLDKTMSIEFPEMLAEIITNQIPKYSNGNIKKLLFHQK
# Run description: relative bond affinity for the glucocorticoid receptor of rat's thymus
# Format: binding
# Test conditions: 24 hours incubation at 0° C.; tritiated dexamethasone 2.5 nM; RBA=100 (CH)/(CX), reference cold dexamethasone
Hi there, I'd appreciate the recorded relative bond affinity (RBA), Glucocorticoid 24H for every entry that follows.

| Compound | Assayed system | Val |
| --- | --- | --- |
| CN(C)c1ccc([C@H]2C[C@@]3(C)[C@@H](CC[C@]3(C#CCl)OC(=O)CCC(=O)O)[C@@H]3CCC4=CC(=O)CCC4=C32)cc1 [Example 10] | Glucocorticoid receptor (Rattus norvegicus, UniProt P06536) | 77 |
| CC#C[C@]1(OC(=O)CCC(=O)O)CC[C@H]2[C@@H]3CCC4=CC(=O)CCC4=C3[C@@H](c3ccc(SC)cc3)C[C@@]21C [Example 12] | Glucocorticoid receptor (Rattus norvegicus, UniProt P06536) | 24 |
| CN(C)c1ccc([C@H]2C[C@@]3(C)[C@@H](CC[C@@]3(O)/C=C\COC(=O)CCC(=O)O)[C@@H]3CCC4=CC(=O)CCC4=C32)cc1 [Example 2] | Glucocorticoid receptor (Rattus norvegicus, UniProt P06536) | 48 |

Problem: Using the record for CN(C)c1ccc([C@H]2C[C@@]3(C)[C@@H](CC[C@@]3(O)C#CCOC(=O)CCC(=O)O)[C@@H]3CCC4=CC(=O)CCC4=C32)cc1 [Example 4] , report its relative bond affinity (RBA), Glucocorticoid 24H.
Solution: 27

----------
# Assayed system: Androgen receptor (Rattus norvegicus, UniProt P15207)
# Construct: The prostates were removed, weighed and homogenized; from tissue; host or cells: prostate cytosol (105,000 g supernatant) of castrated male rats
# Sequence (P15207 1-902): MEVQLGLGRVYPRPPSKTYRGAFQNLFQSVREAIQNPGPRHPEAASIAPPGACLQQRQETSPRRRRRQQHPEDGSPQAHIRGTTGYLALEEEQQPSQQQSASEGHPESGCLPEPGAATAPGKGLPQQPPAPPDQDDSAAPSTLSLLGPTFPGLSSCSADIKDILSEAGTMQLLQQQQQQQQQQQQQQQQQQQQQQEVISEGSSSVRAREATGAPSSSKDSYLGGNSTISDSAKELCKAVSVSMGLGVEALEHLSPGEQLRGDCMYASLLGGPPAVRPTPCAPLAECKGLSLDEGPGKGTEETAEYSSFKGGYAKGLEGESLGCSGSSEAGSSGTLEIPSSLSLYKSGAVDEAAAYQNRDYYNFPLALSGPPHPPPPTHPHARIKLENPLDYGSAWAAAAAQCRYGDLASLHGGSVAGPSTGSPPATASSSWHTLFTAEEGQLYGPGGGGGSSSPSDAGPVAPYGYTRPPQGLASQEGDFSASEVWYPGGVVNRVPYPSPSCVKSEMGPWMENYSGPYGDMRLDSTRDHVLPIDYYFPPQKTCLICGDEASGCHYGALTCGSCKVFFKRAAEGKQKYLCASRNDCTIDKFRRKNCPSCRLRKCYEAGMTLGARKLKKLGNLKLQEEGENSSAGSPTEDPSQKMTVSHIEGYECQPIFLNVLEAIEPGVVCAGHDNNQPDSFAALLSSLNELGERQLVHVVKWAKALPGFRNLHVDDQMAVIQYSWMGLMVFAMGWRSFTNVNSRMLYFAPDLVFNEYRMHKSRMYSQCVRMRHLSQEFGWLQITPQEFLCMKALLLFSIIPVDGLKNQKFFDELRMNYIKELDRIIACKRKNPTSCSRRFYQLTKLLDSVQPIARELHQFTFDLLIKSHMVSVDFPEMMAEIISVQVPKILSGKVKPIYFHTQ
# Run description: relative bond affinity for the androgen receptor of rat's prostate
# Format: binding
# Test conditions: half an hour incubation at 0° C.; tritiated testosterone; RBA=100 (CH)/(CX), reference cold testosterone
# Procedure: 1) Measurement of the relative bond affinity for the receptors of steroid hormones: Androgen receptor of rat's prostate Male rats weighing 160 to 200 g were castrated and 24 hours after the castration, the animals were killed. The prostates were removed, weighed and homogenized at 0° C. using a Potter teflon-flask in a (TSDPM) 10 mM Tris, 0.25M saccharose, […] phenylmethanesulfonylfluoride, 20 mM molybdate, 2 mM dithiothreitol, HCl pH 7.4 buffer (1 g of tissue per 5 ml of TSDPM). […]
I'd appreciate it if you could supply relative bond affinity (RBA), Androgen 0,5H values for the items below.

| Given smiles | Val |
| --- | --- |
| CN(C)c1ccc([C@H]2C[C@@]3(C)[C@@H](CC[C@@]3(O)C#CCOC(=O)CCC(=O)O)[C@@H]3CCC4=CC(=O)CCC4=C32)cc1 | 5,1 |
| CN(C)c1ccc([C@H]2C[C@@]3(C)[C@@H](CC[C@]3(C#CCl)OC(=O)CCC(=O)O)[C@@H]3CCC4=CC(=O)CCC4=C32)cc1 | 1,9 |
| CC#C[C@]1(OC(=O)CCC(=O)O)CC[C@H]2[C@@H]3CCC4=CC(=O)CCC4=C3[C@@H](c3ccc(SC)cc3)C[C@@]21C | 0,8 |

// below: relative bond affinity (RBA), Androgen 0,5H requested for another compound
Problem: Look up relative bond affinity (RBA), Androgen 0,5H: CN(C)c1ccc([C@H]2C[C@@]3(C)[C@@H](CC[C@@]3(O)/C=C\COC(=O)CCC(=O)O)[C@@H]3CCC4=CC(=O)CCC4=C32)cc1
Solution: 12

Numbers sourced from patent US5276023A.
